Origin of measurements: PubChem BioAssay AID2060491

System: 857933-349-R-J2-PDC complex spheroids, viability
Test: Anticancer human tumor 857933-349-R-J2-PDC patient-derived colon adenocarcinoma cell line growth inhibition [GQUAD]
Settings: second compound 0.1 µM; first compound 1 µM; active compounds read low
Classify: true when viability, T/C is strictly less than 80%; false when viability, T/C is not.

Compound | System | Answer label
CC(C)n1c(=O)n(C)c2cnc3cc(F)c(-c4ccc(OCCCN5CCCCC5)nc4)cc3c21 + Cc1cnc(CNC(=O)c2c(=O)c3ccc(N4CCCN(C)CC4)nc3n3c2sc2ccccc23)cn1 | 857933-349-R-J2-PDC complex spheroids, viability | true
CC(=O)O[C@H]1C(=O)[C@@]2(C)[C@H]([C@H](OC(=O)c3ccccc3)[C@]3(O)C[C@H](OC(=O)[C@H](O)[C@@H](NC(=O)c4ccccc4)c4ccccc4)C(C)=C1C3(C)C)[C@]1(OC(C)=O)CO[C@@H]1C[C@@H]2O + Cc1[nH]c2ccc(F)cc2c1-c1nc2c3cccnc3c3ncccc3c2[nH]1 | 857933-349-R-J2-PDC complex spheroids, viability | true
CC1COCCN1c1cc(C2(O)CC3CCC(C2)O3)c2cnn(-c3ccn[nH]3)c2n1 (stereo not given) + Cc1[nH]c2ccc(F)cc2c1-c1nc2c3cccnc3c3ncccc3c2[nH]1 | 857933-349-R-J2-PDC complex spheroids, viability | true
C#Cc1c(F)ccc2cc(O)cc(-c3ncc4c(N5CC6CCC(C5)N6)nc(OCC56CCCN5CC(F)C6)nc4c3F)c12 (stereo not given) + Cc1[nH]c2ccc(F)cc2c1-c1nc2c3cccnc3c3ncccc3c2[nH]1 | 857933-349-R-J2-PDC complex spheroids, viability | false

* * *

Tested on: 857933-349-R-J2-PDC complex spheroids, viability
Test: Anticancer human tumor 857933-349-R-J2-PDC cell line growth inhibition [GQUAD];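 also: spheroids exposed to compounds for one week before readout; percent viability relative to vehicle DMSO wells taken as 100%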
Conditions: second compound 0.0316 µM; first compound 0.316 µM; active compounds read low

Compound | viability, T/C
COc1ncnc(C2CC2)c1-c1ncc2cnn(Cc3ccc(-c4nc(C(F)(F)F)cn4C(C)C)cc3)c2n1 + Cc1[nH]c2ccc(F)cc2c1-c1nc2c3cccnc3c3ncccc3c2[nH]1 | 99%
CC(C)n1c(=O)n(C)c2cnc3cc(F)c(-c4ccc(OCCCN5CCCCC5)nc4)cc3c21 + CN(C)c1ccc(Nc2c3ccc(NC(=O)CCN4CCCC4)cc3nc3cc(NC(=O)CCN4CCCC4)ccc23)cc1 | 108%
CC1COCCN1c1cc(-c2ccnn2C)c2ccnc(-c3ccn[nH]3)c2n1 (stereo not given) + CN(C)c1ccc(Nc2c3ccc(NC(=O)CCN4CCCC4)cc3nc3cc(NC(=O)CCN4CCCC4)ccc23)cc1 | 78%
CC1COCCN1c1cc(-c2ccnn2C)c2ccnc(-c3ccn[nH]3)c2n1 (stereo not given) + Cc1[nH]c2ccc(F)cc2c1-c1nc2c3cccnc3c3ncccc3c2[nH]1 | 50.3%
Nc1ccn(C2OC(CO)C(O)C2(F)F)c(=O)n1 (stereo not given) + Cc1cnc(CNC(=O)c2c(=O)c3ccc(N4CCCN(C)CC4)nc3n3c2sc2ccccc23)cn1 | 46.6%
CC(C)(O)C1CCC(Nc2ccc3ncc(-c4cccc(C(F)(F)F)c4)n3n2)CC1 (stereo not given) + CN(C)c1ccc(Nc2c3ccc(NC(=O)CCN4CCCC4)cc3nc3cc(NC(=O)CCN4CCCC4)ccc23)cc1 | 97.5%
CC1COCCN1c1cc(C2(S(C)(=N)=O)CC2)nc(-c2ccnc3[nH]ccc23)n1 (stereo not given) + Cc1cnc(CNC(=O)c2c(=O)c3ccc(N4CCCN(C)CC4)nc3n3c2sc2ccccc23)cn1 | 72.3%
Cc1cccc(N(C)C(=O)C2C(O)CCN2c2nc(C)cc(C(F)(F)F)c2C#N)c1 (stereo not given) + CN(C)c1ccc(Nc2c3ccc(NC(=O)CCN4CCCC4)cc3nc3cc(NC(=O)CCN4CCCC4)ccc23)cc1 | 101%
CC(=O)O[C@H]1C(=O)[C@@]2(C)[C@H]([C@H](OC(=O)c3ccccc3)[C@]3(O)C[C@H](OC(=O)[C@H](O)[C@@H](NC(=O)c4ccccc4)c4ccccc4)C(C)=C1C3(C)C)[C@]1(OC(C)=O)CO[C@@H]1C[C@@H]2O + Cc1[nH]c2ccc(F)cc2c1-c1nc2c3cccnc3c3ncccc3c2[nH]1 | 11.6%
CC(C)(O)C1CCC(Nc2ccc3ncc(-c4cccc(C(F)(F)F)c4)n3n2)CC1 (stereo not given) + Cc1[nH]c2ccc(F)cc2c1-c1nc2c3cccnc3c3ncccc3c2[nH]1 | 96.4%
CCc1c2c(nc3ccc(O)cc13)-c1cc3c(c(=O)n1C2)COC(=O)[C@]3(O)CC + Cc1[nH]c2ccc(F)cc2c1-c1nc2c3cccnc3c3ncccc3c2[nH]1 | 12.2%
O=C(c1cc(Cc2n[nH]c(=O)c3ccccc23)ccc1F)N1CCN(C(=O)C2CC2)CC1 + Cc1[nH]c2ccc(F)cc2c1-c1nc2c3cccnc3c3ncccc3c2[nH]1 | 98.1%
Cn1ncnc1[C@H]1c2n[nH]c(=O)c3cc(F)cc(c23)N[C@@H]1c1ccc(F)cc1 + Cc1cnc(CNC(=O)c2c(=O)c3ccc(N4CCCN(C)CC4)nc3n3c2sc2ccccc23)cn1 | 81.7%
CC[C@@]1(O)C(=O)OCc2c1cc1n(c2=O)Cc2cc3c(CN(C)C)c(O)ccc3nc2-1 + Cc1[nH]c2ccc(F)cc2c1-c1nc2c3cccnc3c3ncccc3c2[nH]1 | 39.6%
COc1cc(C2c3cc4c(cc3C(OC3OC5COC(C)OC5C(O)C3O)C3COC(=O)C23)OCO4)cc(OC)c1O (stereo not given) + CN(C)c1ccc(Nc2c3ccc(NC(=O)CCN4CCCC4)cc3nc3cc(NC(=O)CCN4CCCC4)ccc23)cc1 | 80.3%
O=C(c1cc(Cc2n[nH]c(=O)c3ccccc23)ccc1F)N1CCN(C(=O)C2CC2)CC1 + CN(C)c1ccc(Nc2c3ccc(NC(=O)CCN4CCCC4)cc3nc3cc(NC(=O)CCN4CCCC4)ccc23)cc1 | 108%
COc1ncnc(C2CC2)c1-c1ncc2cnn(Cc3ccc(-c4nc(C(F)(F)F)cn4C(C)C)cc3)c2n1 + Cc1cnc(CNC(=O)c2c(=O)c3ccc(N4CCCN(C)CC4)nc3n3c2sc2ccccc23)cn1 | 85.4%
CC[C@@]1(O)C(=O)OCc2c1cc1n(c2=O)Cc2cc3c(CN(C)C)c(O)ccc3nc2-1 + CN(C)c1ccc(Nc2c3ccc(NC(=O)CCN4CCCC4)cc3nc3cc(NC(=O)CCN4CCCC4)ccc23)cc1 | 46.7%
COc1ncnc(C2CC2)c1-c1ncc2cnn(Cc3ccc(-c4nc(C(F)(F)F)cn4C(C)C)cc3)c2n1 + CN(C)c1ccc(Nc2c3ccc(NC(=O)CCN4CCCC4)cc3nc3cc(NC(=O)CCN4CCCC4)ccc23)cc1 | 102%
Cc1cccc(N(C)C(=O)C2C(O)CCN2c2nc(C)cc(C(F)(F)F)c2C#N)c1 (stereo not given) + Cc1cnc(CNC(=O)c2c(=O)c3ccc(N4CCCN(C)CC4)nc3n3c2sc2ccccc23)cn1 | 94.4%

* * *

Test system: 857933-349-R-J2-PDC complex spheroids, viability
Assay: Anticancer human tumor 857933-349-R-J2-PDC cell line growth inhibition [GQUAD];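 also: spheroids exposed to compounds for one week before readout; percent viability relative to vehicle DMSO wells taken as 100%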
Details: second compound 0.0316 µM; first compound 0.0316 µM; active compounds read low

Compound | viability, T/C
COc1cccc2c1C(=O)c1c(O)c3c(c(O)c1C2=O)CC(O)(C(=O)CO)CC3OC1CC(N)C(O)C(C)O1 (stereo unspecified) + CN(C)c1ccc(Nc2c3ccc(NC(=O)CCN4CCCC4)cc3nc3cc(NC(=O)CCN4CCCC4)ccc23)cc1 | 100%
CC[C@@]1(O)C(=O)OCc2c1cc1n(c2=O)Cc2cc3c(CN(C)C)c(O)ccc3nc2-1 + Cc1[nH]c2ccc(F)cc2c1-c1nc2c3cccnc3c3ncccc3c2[nH]1 | 63.5%
CC[C@@]1(O)C(=O)OCc2c1cc1n(c2=O)Cc2cc3c(CN(C)C)c(O)ccc3nc2-1 + Cc1cnc(CNC(=O)c2c(=O)c3ccc(N4CCCN(C)CC4)nc3n3c2sc2ccccc23)cn1 | 59.7%
CC1COCCN1c1cc(C2(O)CC3CCC(C2)O3)c2cnn(-c3ccn[nH]3)c2n1 (stereo unspecified) + Cc1cnc(CNC(=O)c2c(=O)c3ccc(N4CCCN(C)CC4)nc3n3c2sc2ccccc23)cn1 | 49.9%
O=c1[nH]cc(F)c(=O)[nH]1 + Cc1[nH]c2ccc(F)cc2c1-c1nc2c3cccnc3c3ncccc3c2[nH]1 | 97.1%
CC(C)n1c(=O)n(C)c2cnc3cc(F)c(-c4ccc(OCCCN5CCCCC5)nc4)cc3c21 + Cc1[nH]c2ccc(F)cc2c1-c1nc2c3cccnc3c3ncccc3c2[nH]1 | 100%
Nc1ccn(C2OC(CO)C(O)C2(F)F)c(=O)n1 (stereo unspecified) + Cc1cnc(CNC(=O)c2c(=O)c3ccc(N4CCCN(C)CC4)nc3n3c2sc2ccccc23)cn1 | 75.9%
COc1ncnc(C2CC2)c1-c1ncc2cnn(Cc3ccc(-c4nc(C(F)(F)F)cn4C(C)C)cc3)c2n1 + Cc1cnc(CNC(=O)c2c(=O)c3ccc(N4CCCN(C)CC4)nc3n3c2sc2ccccc23)cn1 | 108%
Cc1[nH]c2ccccc2c1CCNCc1ccc(/C=C/C(=O)NO)cc1 + CN(C)c1ccc(Nc2c3ccc(NC(=O)CCN4CCCC4)cc3nc3cc(NC(=O)CCN4CCCC4)ccc23)cc1 | 101%
CC(C)n1c(=O)n(C)c2cnc3cc(F)c(-c4ccc(OCCCN5CCCCC5)nc4)cc3c21 + Cc1cnc(CNC(=O)c2c(=O)c3ccc(N4CCCN(C)CC4)nc3n3c2sc2ccccc23)cn1 | 76.9%
Cc1cccc(N(C)C(=O)C2C(O)CCN2c2nc(C)cc(C(F)(F)F)c2C#N)c1 (stereo unspecified) + CN(C)c1ccc(Nc2c3ccc(NC(=O)CCN4CCCC4)cc3nc3cc(NC(=O)CCN4CCCC4)ccc23)cc1 | 106%
